protocol.summary: Intrinsic clearance in monkey hepatocytes measured per 10^6 cells
Type: ADME, cell-based, Macaca mulatta, Hepatocyte
condition.info: rhesus monkey
Listed next: entries and their corresponding CLH.
Write it as a number; the unit µL/min/1e6 cells goes unstated.

[[record]]
smiles_str = "CCn1c(CO)nn(-c2nc(O[C@@H](C)C(F)(F)F)c(C(=O)Nc3c(C)ccnc3Cl)cc2F)c1=O"
measured_result = 4


Inquiry: What value of CLH has been reported for the following molecule? CCn1c(CO)nn(-c2nc(O[C@@H](C)C(F)(F)F)c(C(=O)Nc3c(C)cnc(OC)c3Cl)cc2F)c1=O
Reply text: 5.3

---

protocol.summary: Stability in human hepatocytes assessed as intrinsic clearance measured per 10^6 cells incubated upto 120 mins by LC-MS/MS analysis
Type: ADME, cell-based, Hepatocyte
condition.info: 2 h
# CLH values compiled below
Reply numerically in µL/min/1e6 cells, unit not repeated.

Inquiry: I would be grateful if you could share the reported CLH for CCn1c(CO)nn(-c2nc(O[C@@H](C)C(F)(F)F)c(C(=O)Nc3c(C)cnc(OC)c3Cl)cc2F)c1=O .
Reply text: 2.3

Inquiry: Here is the next molecule: CCn1c(CO)nn(-c2nc(O[C@@H](C)C(F)(F)F)c(C(=O)Nc3c(Cl)ccnc3OC)cc2F)c1=O
Reply text: 51

Inquiry: Same again, this time with CCn1c(CO)nn(-c2nc(O[C@@H](C)C(F)(F)F)c(C(=O)Nc3c(C)ccnc3F)cc2F)c1=O
Reply text: 61

Inquiry: CCn1c(CO)nn(-c2nc(O[C@@H](C)C(F)(F)F)c(C(=O)Nc3c(Cl)ccnc3Cl)cc2F)c1=O ?
Reply text: 381
